Where do the numbers come from? From ChEMBL document CHEMBL3774328.

Below, each of the molecules is paired with its reported fold change (FC) value.
- TESTED SYSTEM: ATP-dependent translocase ABCB1 (Homo sapiens, UniProt P08183)
- Sequence (P08183 whole entry): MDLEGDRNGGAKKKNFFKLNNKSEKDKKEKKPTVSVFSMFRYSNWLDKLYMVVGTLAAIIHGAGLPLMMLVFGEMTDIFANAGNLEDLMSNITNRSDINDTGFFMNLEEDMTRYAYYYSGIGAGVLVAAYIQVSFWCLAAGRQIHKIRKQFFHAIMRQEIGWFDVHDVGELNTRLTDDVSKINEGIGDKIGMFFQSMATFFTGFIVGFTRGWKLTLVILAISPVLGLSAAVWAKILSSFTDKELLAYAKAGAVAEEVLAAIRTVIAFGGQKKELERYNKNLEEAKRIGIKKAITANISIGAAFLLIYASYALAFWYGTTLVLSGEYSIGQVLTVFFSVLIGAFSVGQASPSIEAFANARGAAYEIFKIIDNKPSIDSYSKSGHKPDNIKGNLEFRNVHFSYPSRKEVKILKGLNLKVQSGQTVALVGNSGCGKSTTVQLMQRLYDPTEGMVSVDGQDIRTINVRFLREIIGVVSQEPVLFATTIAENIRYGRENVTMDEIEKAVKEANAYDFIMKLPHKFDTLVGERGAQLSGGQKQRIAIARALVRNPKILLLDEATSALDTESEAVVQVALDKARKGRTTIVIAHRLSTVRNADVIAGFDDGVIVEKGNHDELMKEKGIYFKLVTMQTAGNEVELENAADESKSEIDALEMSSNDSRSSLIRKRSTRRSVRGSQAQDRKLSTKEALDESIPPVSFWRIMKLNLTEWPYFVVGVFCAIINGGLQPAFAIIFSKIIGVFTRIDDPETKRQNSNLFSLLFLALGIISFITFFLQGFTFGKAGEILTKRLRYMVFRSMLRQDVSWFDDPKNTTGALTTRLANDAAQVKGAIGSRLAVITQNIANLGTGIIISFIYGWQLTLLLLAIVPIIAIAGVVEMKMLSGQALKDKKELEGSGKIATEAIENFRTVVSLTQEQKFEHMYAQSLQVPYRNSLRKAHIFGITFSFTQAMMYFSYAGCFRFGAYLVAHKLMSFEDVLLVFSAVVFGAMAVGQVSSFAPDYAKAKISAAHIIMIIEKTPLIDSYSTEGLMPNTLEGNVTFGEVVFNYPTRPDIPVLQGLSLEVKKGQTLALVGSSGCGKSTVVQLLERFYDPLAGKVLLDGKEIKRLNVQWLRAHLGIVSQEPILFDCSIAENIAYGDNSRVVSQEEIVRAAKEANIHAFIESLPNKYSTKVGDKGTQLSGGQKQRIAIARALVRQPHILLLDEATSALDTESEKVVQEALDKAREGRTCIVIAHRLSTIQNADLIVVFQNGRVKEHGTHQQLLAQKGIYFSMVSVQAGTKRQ
- EXPERIMENTAL PROTOCOL: Inhibition of human MDR1 expressed in mouse NIH/3T3 cells assessed as reduction in daunomycin IC50 at 1 uM by MTT assay
- Assay type: cell-based
- MEASUREMENT CONDITIONS: nih3t3, 1 µM
METRIC NAME: fold change (FC)

1) CC(=O)O[C@H]1CC[C@](C)(O)[C@]23OC(C)(C)[C@H]([C@H](OC(=O)/C=C/c4ccccc4)[C@H](OC(=O)c4ccccc4)[C@]12C)[C@H]3OC(=O)c1cnccn1    2.3
2) CC(=O)O[C@H]1CC[C@](C)(O)[C@]23OC(C)(C)[C@H]([C@H](OC(=O)/C=C/c4ccccc4)[C@H](OC(=O)c4ccccc4)[C@]12C)[C@H]3OC(=O)N(C)C    11.8
3) CC(=O)O[C@H]1CC[C@](C)(O)[C@]23OC(C)(C)[C@H]([C@H](OC(=O)/C=C/c4ccccc4)[C@H](OC(=O)c4ccccc4)[C@]12C)[C@H]3OC(=O)CCC(=O)N(C(=O)NC1CCCCC1)C1CCCCC1    15.8
4) CC(=O)O[C@H]1CC[C@](C)(O)[C@]23OC(C)(C)[C@H]([C@H](OC(=O)/C=C\c4ccccc4)[C@H](OC(=O)c4ccccc4)[C@]12C)[C@H]3OC(=O)c1ccccc1    4.1
5) CC(=O)O[C@H]1CC[C@](C)(OC(C)=O)[C@]23OC(C)(C)[C@H]([C@H](OC(=O)/C=C/c4ccccc4)[C@H](OC(=O)c4ccccc4)[C@]12C)[C@H]3OC(C)=O    6.9
6) CC(=O)O[C@H]1CC[C@](C)(O)[C@]23OC(C)(C)[C@H]([C@H](OC(=O)/C=C/c4ccccc4)[C@H](OC(=O)c4ccccc4)[C@]12C)[C@H]3OC(=O)c1ccccc1    6.2
7) CC(=O)O[C@H]1CC[C@](C)(O)[C@]23OC(C)(C)[C@H]([C@H](OC(=O)/C=C/c4ccccc4)[C@H](OC(=O)c4ccccc4)[C@]12C)[C@H]3OS(C)(=O)=O    7
8) CC(=O)O[C@H]1CC[C@](C)(Cl)[C@]23OC(C)(C)[C@H]([C@H](OC(=O)/C=C/c4ccccc4)[C@H](OC(=O)c4ccccc4)[C@]12C)[C@H]3Cl    5.2
9) COC(=O)CCCC(=O)O[C@@H]1[C@H]2[C@H](OC(=O)/C=C/c3ccccc3)[C@H](OC(=O)c3ccccc3)[C@]3(C)[C@@H](OC(C)=O)CC[C@](C)(O)[C@@]13OC2(C)C    6
10) CC(=O)O[C@H]1CC[C@](C)(O)[C@]23OC(C)(C)[C@H]([C@H](OC(=O)/C=C/c4ccccc4)[C@H](OC(=O)c4ccccc4)[C@]12C)[C@H]3OC(=O)c1cccnc1    11.8
11) CCC(=O)O[C@@H]1[C@H]2[C@H](OC(=O)/C=C/c3ccccc3)[C@H](OC(=O)c3ccccc3)[C@]3(C)[C@@H](OC(C)=O)CC[C@](C)(O)[C@@]13OC2(C)C    10.8
12) CC(=O)O[C@H]1CC[C@](C)(O)[C@]23OC(C)(C)[C@H]([C@H](OC(=O)/C=C\c4ccccc4)[C@H](OC(=O)c4ccccc4)[C@]12C)[C@H]3OC(C)=O    7
13) CC(=O)O[C@H]1CC[C@](C)(O)[C@@]23OC(C)(C)[C@@H](C2=O)[C@H](OC(=O)/C=C/c2ccccc2)[C@H](OC(=O)c2ccccc2)[C@]13C    5.2
14) CC(=O)O[C@H]1CC[C@](C)(O)[C@]23OC(C)(C)[C@H]([C@H](OC(=O)/C=C/c4ccccc4)[C@H](OC(=O)c4ccccc4)[C@]12C)[C@H]3OC(=O)CCC(=O)OCCO    2.6
15) CC(=O)O[C@H]1CC[C@](C)(O)[C@]23OC(C)(C)[C@H]([C@H](OC(=O)/C=C\c4ccccc4)[C@H](OC(=O)c4ccccc4)[C@]12C)[C@H]3OC(=O)c1cnccn1    3.2
16) CC(=O)O[C@H]1CC[C@](C)(O)[C@]23OC(C)(C)[C@H]([C@H](OC(=O)CCc4ccccc4)[C@H](OC(=O)c4ccccc4)[C@]12C)[C@H]3O    3.3
17) CC(=O)O[C@H]1CC[C@](C)(O)[C@]23OC(C)(C)[C@H]([C@H](OC(=O)/C=C/c4ccccc4)[C@H](OC(=O)c4ccccc4)[C@]12C)[C@H]3O    5.6
18) CC(=O)O[C@H]1CC[C@](C)(O)[C@]23OC(C)(C)[C@H]([C@H](OC(=O)/C=C/c4ccccc4)[C@H](OC(=O)c4ccccc4)[C@]12C)[C@H]3OC(=O)CCC(=O)OC1CCCCC1O (stereo partly drawn)    3.9

* * *

- EXPERIMENTAL PROTOCOL: Intrinsic cytotoxicity against mouse NIH/3T3 cells transfected with human MDR1 by MTT assay
- Type: ADME, cell-based, NIH3T3
Just a reminder that ties go to NOT MET: only CC50 strictly below 30 µM counts as MET.

1) CC(=O)O[C@H]1CC[C@](C)(O)[C@]23OC(C)(C)[C@H]([C@H](OC(=O)/C=C/c4ccccc4)[C@H](OC(=O)c4ccccc4)[C@]12C)[C@H]3OC(=O)c1cnccn1    NOT MET
2) CC(=O)O[C@H]1CC[C@](C)(O)[C@]23OC(C)(C)[C@H]([C@H](OC(=O)/C=C/c4ccccc4)[C@H](OC(=O)c4ccccc4)[C@]12C)[C@H]3OC(=O)CCC(=O)N(C(=O)NC1CCCCC1)C1CCCCC1    NOT MET
3) CC(=O)O[C@H]1CC[C@](C)(O)[C@]23OC(C)(C)[C@H]([C@H](OC(=O)/C=C/c4ccccc4)[C@H](OC(=O)c4ccccc4)[C@]12C)[C@H]3OC(=O)CBr    MET
4) CC(=O)O[C@H]1CC[C@@H](C)[C@]23OC(C)(C)[C@H]([C@H](OC(=O)CCc4ccccc4)[C@H](OC(=O)c4ccccc4)[C@]12C)[C@H]3O    MET
5) CC(=O)O[C@H]1CC[C@](C)(O)[C@@]23OC(C)(C)[C@@H](C2=O)[C@H](OC(=O)/C=C/c2ccccc2)[C@H](OC(=O)c2ccccc2)[C@]13C    NOT MET
6) CCC(C)C(=O)O[C@@H]1[C@H]2[C@H](OC(=O)/C=C/c3ccccc3)[C@H](OC(=O)c3ccccc3)[C@]3(C)[C@@H](OC(C)=O)CC[C@](C)(O)[C@@]13OC2(C)C (some centres not stated)    MET
7) CC(=O)O[C@H]1CC[C@](C)(O)[C@]23OC(C)(C)[C@H]([C@H](OC(=O)/C=C\c4ccccc4)[C@H](OC(=O)c4ccccc4)[C@]12C)[C@H]3OC(=O)c1ccccc1    MET
8) CC(=O)O[C@H]1CC[C@](C)(O)[C@]23OC(C)(C)[C@H]([C@H](OC(=O)/C=C/c4ccccc4)[C@H](OC(=O)c4ccccc4)[C@]12C)[C@H]3OC(=O)N(C)C    MET
9) CC(=O)O[C@H]1CC[C@](C)(O)[C@]23OC(C)(C)[C@H]([C@H](OC(=O)/C=C/c4ccccc4)[C@H](OC(=O)c4ccccc4)[C@]12C)[C@H]3OS(C)(=O)=O    NOT MET
10) CC(=O)O[C@H]1CC[C@](C)(O)[C@]23OC(C)(C)[C@H]([C@H](OC(=O)/C=C\c4ccccc4)[C@H](OC(=O)c4ccccc4)[C@]12C)[C@H]3OC(=O)c1cnccn1    NOT MET
11) COc1ccc(CCN(C)CCCC(C#N)(c2ccc(OC)c(OC)c2)C(C)C)cc1OC (configuration not stated)    NOT MET

* * *

- EXPERIMENTAL PROTOCOL: Intrinsic cytotoxicity against mouse NIH/3T3 cells by MTT assay
- Assay type: cell-based, NIH3T3
METRIC NAME: CC50 (µM)

1) CC(=O)O[C@H]1CC[C@](C)(O)[C@]23OC(C)(C)[C@H]([C@H](OC(=O)/C=C/c4ccccc4)[C@H](OC(=O)c4ccccc4)[C@]12C)[C@H]3OC(=O)CCC(=O)OC1CCCCC1O (some centres undefined)    24.3
2) CC(=O)O[C@H]1CC[C@](C)(O)[C@]23OC(C)(C)[C@H]([C@H](OC(=O)/C=C/c4ccccc4)[C@H](OC(=O)c4ccccc4)[C@]12C)[C@H]3OC(=O)CCC(=O)N(C(=O)NC1CCCCC1)C1CCCCC1    56.4
3) CC(=O)O[C@H]1CC[C@](C)(OC(=O)CN2CCOCC2)[C@]23OC(C)(C)[C@H]([C@H](OC(=O)/C=C/c4ccccc4)[C@H](OC(=O)c4ccccc4)[C@]12C)[C@H]3OC(C)=O    36.2
4) CC(=O)O[C@H]1CC[C@](C)(O)[C@]23OC(C)(C)[C@H]([C@H](OC(=O)/C=C\c4ccccc4)[C@H](OC(=O)c4ccccc4)[C@]12C)[C@H]3OC(=O)c1ccccc1    27.2
5) CC(=O)O[C@H]1CC[C@]2(C)O[C@@H]3[C@H]4[C@H](OC(=O)/C=C/c5ccccc5)[C@H](OC(=O)c5ccccc5)[C@@]1(C)[C@]32OC4(C)C    29.4
6) CCCC(=O)O[C@@H]1[C@H]2[C@H](OC(=O)/C=C/c3ccccc3)[C@H](OC(=O)c3ccccc3)[C@]3(C)[C@@H](OC(C)=O)CC[C@](C)(O)[C@@]13OC2(C)C    44.9
7) CC(=O)O[C@H]1CC[C@](C)(O)[C@]23OC(C)(C)[C@H]([C@H](OC(=O)/C=C\c4ccccc4)[C@H](OC(=O)c4ccccc4)[C@]12C)[C@H]3OC(C)=O    12
8) CC(=O)O[C@H]1CC[C@](C)(O)[C@]23OC(C)(C)[C@H]([C@H](OC(=O)/C=C/c4ccccc4)[C@H](OC(=O)c4ccccc4)[C@]12C)[C@H]3O    26.1
9) CC(=O)O[C@H]1CC[C@](C)(Cl)[C@]23OC(C)(C)[C@H]([C@H](OC(=O)/C=C/c4ccccc4)[C@H](OC(=O)c4ccccc4)[C@]12C)[C@H]3Cl    43.7
10) CC(=O)O[C@H]1CC[C@](C)(O)[C@]23OC(C)(C)[C@H]([C@H](OC(=O)/C=C/c4ccccc4)[C@H](OC(=O)c4ccccc4)[C@]12C)[C@H]3OC(=O)C1CC1    50.3
